Numbers sourced from the domain aggregation screens of Martell et al. (2025).

# method.notes: soluble fraction after stress (log2 fold change); higher = more stays soluble; pooled small domains, quantitative proteomics
# condition.description: stress: 50 degC

sequence: HMQVPFGFQRNPSTGTLEEKAEEQLIINQVLSLKNSGIGVSEISKRLGELSVSRIYRIINTAKKNAS
soluble fraction (log2): -0.366
//
sequence: HMAPDYYALLGVPRNATTAEVRKAFRGKALEQHPDRGGDEESFRLLSKAYDVLSDSERRKYYDRTG
soluble fraction (log2): 0.0767
//
sequence: HMNADTVIGKAGTVIEKIDNVAATGAVKIDGKVWTARSERDNITIDEGTLVKAMAIEGVKLIVEPVT
soluble fraction (log2): 0.198
//
sequence: HMGESFPYVAYATDSVRLRARPSSSATILTVIRKGDAVLITGADGSYKIVEYEGRKGYVVSAFLSSQET
soluble fraction (log2): -0.857

====

# maps each entry to its soluble fraction (log2)
# method.notes: soluble fraction after stress (log2 fold change); higher = more stays soluble; pooled small domains, quantitative proteomics
# condition.description: stress: 50 degC
measured.parameter: soluble fraction (log2)

sequence: HMSVRPMVEILRVVGSPSPVWVTWARNRAAWLYETGIRPQQRLRMADGTEVLIRLVGEFAHILVVGG
measured.parameter: soluble fraction (log2)
test.result: -0.31
--
sequence: HMFDGNIKIVEDAFSVTIVARGTEVKISGDPENVYLASKTVEGLLTLIDKGEAITDQRVHYVIGLVREG
measured.parameter: soluble fraction (log2)
test.result: -2.65
--
sequence: HMNALREVNTSILNVRSGAGTNYSKIGSLTQATRVSVISESNGWSKINYNGKVGYVSSQYLS
measured.parameter: soluble fraction (log2)
test.result: -0.502
--
sequence: HMDSEKVLTNLKEELVLQLSNIEPYGYVPSQYWYSKVQRVQSVQELGKYVDGDLEAFVMKYAEDWESQK
measured.parameter: soluble fraction (log2)
test.result: -0.191
--
sequence: HMFSIDRNIRRLRKEAGLTQEELAQKLFVTRQTISLWELGKVHPDLETLQKLAEQFQVDLLQVLYGPE
measured.parameter: soluble fraction (log2)
test.result: -2.17
--
sequence: HMLGRPDMSPIPEGSRNNDLHAWGFGRLANHPDNKRQIEADFFERGRISGLGDAEIRASWNSILRQLGHQ
measured.parameter: soluble fraction (log2)
test.result: 0.14
--
sequence: HMSLSIKINHESVGLRLDQFLQEHYYKQQSRSYVQHAIKEGYILVNGQSVKNGYMLKLDDLIELEAI
measured.parameter: soluble fraction (log2)
test.result: -1.59
--
sequence: HMAFIEADIGKRIKSLRNKKRITLESLAAETGFTKGYLSKVETSEKAPPVSTLGSIARALGVSISTLLGE
measured.parameter: soluble fraction (log2)
test.result: -0.224

====

# method.notes: soluble fraction after stress (log2 fold change); higher = more stays soluble; pooled small domains, quantitative proteomics
# condition.description: stress: 50 degC
Would you mind labelling by soluble fraction (log2)? At or over -0.4 is t, under is f.

sequence: HMLTKGDRQSIRDSIIYMVGNAPRTLDYIVAESRYSEEDVIEAVRSLLSSHILSIDDSDMISLTRK
assigned.category: f
//
sequence: HMDRKFFYEDQYQDYLGEELKVSFFDTDNKKTVRGTLSEVTPHGIKINLEQETQEIPFSSIIQANLI
assigned.category: t
//
sequence: HMIDAHTTLLAKRLESKGFLALTDKSSAEEIYEEFGISKKAFKKALGALYKERLVRIGEDGVVWM
assigned.category: f
//
sequence: HMGQLSDREALTVLAREALVELPRAAGDYRNGRTAALQSLVGRVMRKTAGRGNPALLQEIFRSLL
assigned.category: f
//
sequence: HMSRYAFEGNVVRLNQKDFDSWKALFTNIDLVSELTRLDIEFTHDKPKNWFSTASAKLNYQNKNAY
assigned.category: f
//
sequence: HMSKPIYSELLREIRSGDVKELTLIPQRREVLVEYSDGRKATVSILANDQQVLRTAESAGVPLTVK
assigned.category: t
//
sequence: HMFASSADGVEGLKTNPIFASTKEKSDAGKLLYTRYLAIGIFRMLELAKATDPKALEALVEAGG
assigned.category: t
//
sequence: HMGNLIIFYDAQTGSAPLLKAVKTSGATLVYEYKNLHGIAIRPSSKTSIEDAIAYFKKVNGVLSVE
assigned.category: f
//
sequence: HMTLREQISALIKQGKLTQAKLARETGVNGGALSAWINGKYTGNVETVEEPIKHWMALNERK
assigned.category: t
//
sequence: HMDNTSNVEKTLRFIRQRGKVSRKEVETLLGSSKFPAISALNELLAENKIVKTGSGPAVRYSVS
assigned.category: t
//
sequence: HMQISDDSELIKIVDNILANSQKQIDDYHNGKTNLFGFFVGQVMKETKGKANPVKVNEILKDKL
assigned.category: t
//
sequence: HMMQEIKLEVINNEELRIDNYINLAGIGLSRSYIQKLIKDGVILVNGKEVKSSYKVSLGDIISVQIPDPG
assigned.category: t
//
sequence: HMSDYLGSLSHEEKMIFNHFDEDSSTIENMAKKTELKPELISQIFLNLELRGFLRQTEGGLYEKI
assigned.category: t
//
sequence: HMSDQIQQIAERIAGLRDIAGYSVEELARELGISAEEYKRYESGEVDIPIGFLYKLANKYNVELTAILT
assigned.category: t
//
sequence: HMQPDPAFVAWVDANPWYKENRTLRALVHDYAEEVKRQEPALIGTAFLDRVKQLVQSEHPELFD
assigned.category: t
//
sequence: HMYYQEDHDIILEETEDVTDPYLITLRGYIFLNNLQWVAARQAFLSADERFRHRHYSALIAPIMQTIDNAA
assigned.category: t
//
sequence: HMLAQDVIVKQDGGTILSKVLEIGTQEIAYKKWNSQDGPVYKIAKDQVLSVNYQNGEVDRFA
assigned.category: t
//
sequence: HMKGRPTTAIITDERTNLRSGPGATNKTIAQAGAGEKLAIIDEKDGWYQVSRAGINGWVAGWVIDVAW
assigned.category: f
//
sequence: HMRPRGTRLPTGWTPSSDALDWTKAEKPGLDPLQTLEKFRDYWTAQPGQKGVKTDWDATWRNWVRREIP
assigned.category: t
//
sequence: HMVTTLLIINVAGKVKNPGVYQLPPGSRVVDALEAAGQQLKGVDISDINLARVLVDGEQILIGSN
assigned.category: f
//
sequence: HMRMTKPLPFDLAAFRNEFGFTKSIIMQEVGVSRHIYDNVERTNATPPEFYDDFVSFFQRHGQ
assigned.category: f
//
sequence: HMSKKQEQALQSREKLLDAATALFAEHGYRDTSVQAIGEKAGVSRGSIFWHFGSKEGLLWAVVERAFTA
assigned.category: t
//
sequence: HMTIGKIVNIIEGSYANVRSAPDQNSEPIGRAYPGDAFLVDPLGSSGDWVKVTYEGQSGFIFQAYISV
assigned.category: f
//
sequence: HMRQMSEELQSAKEALEDRRTQEKAVLLLMEHRNISNDEAHRLLRKLAMDQGKRLPEVARALVSMAGVL
assigned.category: t
//
sequence: HMGAARVTPLYNLRLREGPSTATARLDVVPRGTTLEVRAWDETGDWAQVEYRGQIGWIAAWLAEVEGEAP
assigned.category: t
//
sequence: HMDSALKDDLNAFVKKLDVESQTLFMRRYFLGESVSSLASRFEMSEDNVGVKLFRIRAKLKKYLTGKGYD
assigned.category: f
//
sequence: HMDSLNWVEKIINTLPEQQRLIIQMRDIEQYEFAEIAKILEMNETAIRVALSRARKTIREFMIKTH
assigned.category: f
//
sequence: HMEVSKETFPAYVAVDSLPVYKSASTSSSKVTTIDFGREVTVVETRGGWAKIQYGSYKGFAEIEGMSKN
assigned.category: t
//
sequence: HMKRTLLLEGRTIPYELTQKPVKNINIRVHADGSVRVSAGPWVSPEAVDAVLRQRSAFLLRALDQFAAQAP
assigned.category: f
//
sequence: HMLSDADLAAFREVFDLVDKDKSGAIEMEEVEELTKLLGLDLTRDEVELLVREIDKDGNGEVDFEEFLLVM
assigned.category: t
//
sequence: HMEPADALVAALVARGVSPSTARITVKQYPATRIQPQLEVFDYLVAQKDPKVSRNPPGFLLSAIRGEYA
assigned.category: t
//
sequence: HMGPSEVTLDNFVGKNYTDVVNDTSYQFTFKKEEKSDQTHAAGIIIAQSPKKGIKVKSNSTVTLTVSTG
assigned.category: t
//
sequence: HMDYHTIQTGDKGDEVLRLQQALAEYGYYEGDLDGRFGQQTRRAVERFQYSHGLTADGIAGRNTLSVLYD
assigned.category: t
